Assay: Inhibition of alpha-glucosidase (unknown origin)
Design: species or system Homo sapiens
assay.readout: pIC50
Give bare numbers, as −log10 of the molar value.

[
  {
    "molecule": "COC(=O)/C=C/c1ccc2c(c1)C1(C(=O)N2Cc2ccc(OC)cc2)[C@H](C(=O)/C=C/c2ccc(N(C)C)cc2)[C@@H](c2ccc(N(C)C)cc2)[C@@H]2CSCN21 (stereo partly specified)",
    "pIC50": 5.02
  },
  {
    "molecule": "COC(=O)/C=C/c1ccc2c(c1)C1(C(=O)N2Cc2ccc(OC)cc2)[C@H](C(=O)/C=C/c2ccc(-c3ccccc3)cc2)[C@@H](c2ccc(-c3ccccc3)cc2)[C@@H]2CSCN21 (stereo partly specified)",
    "pIC50": 5.38
  },
  {
    "molecule": "COC(=O)/C=C/c1ccc2c(c1)C1(C(=O)N2Cc2ccc(OC)cc2)[C@H](C(=O)/C=C/c2ccc(Br)cc2)[C@@H](c2ccc(Br)cc2)[C@@H]2CSCN21 (stereo partly specified)",
    "pIC50": 5.07
  },
  {
    "molecule": "COC(=O)/C=C/c1ccc2c(c1)C1(C(=O)N2Cc2ccc(OC)cc2)[C@H](C(=O)/C=C/c2ccccc2)[C@@H](c2ccccc2)[C@@H]2CSCN21 (stereo partly specified)",
    "pIC50": 5.08
  },
  {
    "molecule": "COc1ccc(CN2C(=O)C3(c4cc(Br)ccc42)[C@H](C(=O)/C=C/c2ccc(Cl)cc2)[C@@H](c2ccc(Cl)cc2)[C@@H]2CSCN23)cc1 (stereo partly specified)",
    "pIC50": 5.41
  }
]

Turning now to a further record.
Find the recorded pIC50 belonging to O=C(/C=C/c1ccccc1Br)[C@@H]1[C@@H](c2ccccc2Br)[C@@H]2CSCN2C12C(=O)Nc1ccccc12 (stereo partly specified) and report it. 5.35

###

Assay: Inhibition of alpha-glucosidase (unknown origin)
Design: species or system Homo sapiens
Label T when IC50 is strictly below 7 µM; otherwise label F.

Worked cases, answers included:
[
  {
    "compound": "COC(=O)/C=C/c1ccc2c(c1)C1(C(=O)N2Cc2ccc(OC)cc2)[C@H](C(=O)/C=C/c2ccc(OC)cc2)[C@@H](c2ccc(OC)cc2)[C@@H]2CSCN21 (stereo not given in full)",
    "assigned.category": "T"
  },
  {
    "compound": "COC(=O)/C=C/c1ccc2c(c1)C1(C(=O)N2Cc2ccc(OC)cc2)[C@H](C(=O)/C=C/c2ccccc2Br)[C@@H](c2ccccc2Br)[C@@H]2CSCN21 (stereo not given in full)",
    "assigned.category": "T"
  },
  {
    "compound": "O=C(/C=C/c1ccc(Cl)cc1)[C@@H]1[C@@H](c2ccc(Cl)cc2)[C@@H]2CSCN2C12C(=O)Nc1ccccc12 (stereo not given in full)",
    "assigned.category": "F"
  }
]

Lab note: confirm whether the reported IC50 for this compound is below 7 µM, equality not counting. compound: COC(=O)/C=C/c1ccc2c(c1)C1(C(=O)N2Cc2ccc(OC)cc2)[C@H](C(=O)/C=C/c2ccc(Cl)cc2Cl)[C@@H](c2ccc(Cl)cc2Cl)[C@@H]2CSCN21 (stereo not given in full) T

Likewise for COC(=O)/C=C/c1ccc2c(c1)C1(C(=O)N2Cc2ccc(OC)cc2)[C@H](C(=O)/C=C/c2ccc(Cl)cc2)[C@@H](c2ccc(Cl)cc2)[C@@H]2CSCN21 (stereo not given in full) ? T

Likewise for O=C(/C=C/c1ccco1)[C@@H]1[C@@H](c2ccco2)[C@@H]2CSCN2C12C(=O)Nc1ccccc12 (stereo not given in full) ? F

Likewise for C[C@H]1O[C@H](O[C@H]2[C@H](O)[C@@H](O)[C@@H](O[C@H]3[C@H](O)[C@@H](O)C(O)O[C@@H]3CO)O[C@@H]2CO)[C@H](O)[C@@H](O)[C@@H]1N[C@H]1C=C(CO)[C@@H](O)[C@H](O)[C@H]1O (stereo not given in full) ? F

Likewise for O=C(/C=C/c1ccc(Cl)cc1)[C@@H]1[C@@H](c2ccc(Cl)cc2)[C@@H]2CSCN2C12C(=O)Nc1ccc(Br)cc12 (stereo not given in full) ? T

Likewise for O=C(/C=C/c1ccc(Cl)cc1Cl)[C@@H]1[C@@H](c2ccc(Cl)cc2Cl)[C@@H]2CSCN2C12C(=O)Nc1ccccc12 (stereo not given in full) ? F

Where do the numbers come from? From ChEMBL document CHEMBL4622916.
